meta.source: patent US20040132648A1

System: PC12 cells
assay: Neuroprotective action against β-amyloid, viable cell count / survival rate by WST-8 method
Assay type: cell-based, rat
Parameters: key: +, P < 0.05 when compared with the no neuropeptide-added group
run_conditions: PACAP-related neuropeptide 10^−9 M; amyloid (50 μM); cell survival rate vs no peptide
quantity: Neuroprotective action

Example results:
1) PACAP long form (PACAP31) (H-HSDGIFTDSYSRYRKQMAVKKYLAAVLGKRY-NH2; ends and bridges not checked) [Peptide 32]: +
2) PACAP long form (PACAP33) (H-HSDGIFTDSYSRYRKQMAVKKYLAAVLGKRYKQ-NH2; ends and bridges not checked) [Peptide 34]: +
3) PACAP short form (PACAP26) (H-HSDGIFTDSYSRYRKQMAVKKYLAAV-NH2; ends and bridges not checked) [Peptide 28]: +
4) PACAP27 highly basic derivative A (H-HSDGIFTDSYSRYRRQLAVRRYLAAVLGK-NH2; ends and bridges not checked) [Peptide 15]: +
5) PACAP short form (H-HSDGIFTDSYSRYRKQMAVKKYL-NH2; ends and bridges not checked) [Peptide 19]: +

input: Would you mind telling me what Neuroprotective action value was observed for PACAP long form (PACAP30) (H-HSDGIFTDSYSRYRKQMAVKKYLAAVLGKR-NH2; ends and bridges not checked) [Peptide 31] ?
output: +

input: Would you mind telling me what Neuroprotective action value was observed for PACAP long form (PACAP36) (H-HSDGIFTDSYSRYRKQMAVKKYLAAVLGKRYKQRVK-NH2; ends and bridges not checked) [Peptide 37] ?
output: +

input: Would you mind telling me what Neuroprotective action value was observed for PACAP27 highly basic derivative C (H-HSDGIFTDSYSRYRRQLAVRRYLAAVLGRR-NH2; ends and bridges not checked) [Peptide 17] ?
output: +
